- TESTED SYSTEM: DQB1*06:02
- MEASUREMENT DESCRIPTION: Peptide binding to HLA-DQ allele, competition assay
METRIC NAME: IC50 (µM)
I only need the number, in µM, no unit after it.

>  <COMPOUND>
CC[C@H](C)[C@H](N)C(=O)N[C@@H](CCCCN)C(=O)N[C@@H](Cc1c[nH]cn1)C(=O)N[C@H](C(=O)N[C@@H](Cc1ccc(O)cc1)C(=O)N[C@@H](C)C(=O)N[C@H](C(=O)N[C@@H](CO)C(=O)N[C@@H](CO)C(=O)N[C@@H](C)C(=O)N[C@@H](C)C(=O)N[C@@H](CC(C)C)C(=O)N[C@@H](CO)C(=O)N[C@@H](C)C(=O)N[C@@H](CO)C(=O)O)[C@@H](C)CC)[C@@H](C)CC [Peptide 3563.0009]

>  <METRIC NAME>
IC50

>  <ENDPOINT VALUE>
0.066

$$$$

Would you kindly share the measured IC50 for CC[C@H](C)[C@H](NC(=O)[C@H](CCC(=O)O)NC(=O)[C@@H](N)CC(=O)O)C(=O)N[C@@H](CC(N)=O)C(=O)N[C@H](C(=O)N[C@H](C(=O)N[C@@H](Cc1ccccc1)C(=O)N[C@@H](CO)C(=O)N[C@@H](CC(=O)O)C(=O)N[C@@H](Cc1ccc(O)cc1)C(=O)N[C@H](C(=O)N1CCC[C@H]1C(=O)N[C@@H](Cc1ccc(O)cc1)C(=O)N[C@H](C(=O)N[C@@H](Cc1ccccc1)C(=O)O)C(C)C)[C@@H](C)CC)[C@@H](C)CC)[C@@H](C)O [Peptide 3563.0026] ?
4.55

Would you kindly share the measured IC50 for CC(C)C[C@H](NC(=O)[C@H](C)NC(=O)[C@H](Cc1ccccc1)NC(=O)[C@H](CO)NC(=O)[C@H](CO)NC(=O)[C@@H](NC(=O)[C@H](CCCNC(=N)N)NC(=O)[C@H](CC(C)C)NC(=O)[C@H](CCCCN)NC(=O)[C@H](CCCCN)NC(=O)[C@@H](N)Cc1ccc(O)cc1)[C@@H](C)O)C(=O)N[C@@H](CC(N)=O)C(=O)N[C@@H](CC(C)C)C(=O)N1CCC[C@H]1C(=O)N[C@H](C(=O)O)[C@@H](C)O [Peptide 3563.0022] ?
2.65

Would you kindly share the measured IC50 for CC[C@H](C)[C@H](NC(=O)[C@H](CCC(=O)O)NC(=O)[C@H](CC(=O)O)NC(=O)[C@@H](NC(=O)[C@@H](NC(=O)[C@H](CC(N)=O)NC(=O)[C@H](C)NC(=O)[C@@H](NC(=O)[C@H](C)NC(=O)[C@@H](NC(=O)[C@H](CCCCN)NC(=O)[C@H](CC(C)C)NC(=O)[C@H](CC(=O)O)NC(=O)[C@H](Cc1c[nH]cn1)NC(=O)[C@@H](N)CC(C)C)[C@@H](C)CC)[C@@H](C)CC)[C@@H](C)CC)[C@@H](C)CC)C(=O)O [Peptide 3563.0013] ?
1.83

Would you kindly share the measured IC50 for CC[C@H](C)[C@H](NC(=O)CNC(=O)[C@H](CCSC)NC(=O)[C@H](CC(N)=O)NC(=O)[C@@H](NC(=O)[C@@H](NC(=O)[C@H](Cc1ccccc1)NC(=O)[C@H](CCC(=O)O)NC(=O)[C@@H](N)C(C)C)C(C)C)[C@@H](C)O)C(=O)N[C@H](C(=O)N[C@H](C(=O)N1CCC[C@H]1C(=O)N[C@@H](CC(=O)O)C(=O)N[C@@H](Cc1ccccc1)C(=O)N[C@@H](C)C(=O)O)[C@@H](C)CC)[C@@H](C)CC [Peptide 3563.0007] ?
8.4

Ref: patent US12448433B2
